B1: FBXO3 (parent)
chain: GGFPIIRDQIFRYVHDPECVATTG

- Variants of: B1
- Method Notes: protein stability index of a GFP-peptide fusion (GPS, HEK-293T) (PSI 1-6); higher = more stable;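 note: lentivirally expressed fusions sorted by FACS into six bins by GFP to DsRed ratio, PSI derived from sequencing read proportions per bin multiplied by bin number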
- Run Parameters: c terminus: a fixed tail appended
Readout: protein stability index

• F11I = 2.45
• F11A = 3.59
• I10D = 3.6
• T22E = 2.28
• H15V = 2.58
• I10N = 3.3
• P17S = 2.93
• E18R = 1.69
• I5N = 2.4
• G2I = 2.2
• E18M = 1.79
• C19Y = 1.81
• V14W = 1.94
• F11V = 3.18
• I6P = 2.35
• D8V = 2.54
• Q9E = 2.09
• T22W = 1.84
• E18G = 1.71
• D16L = 1.75
• R12T = 2.21
• T23G = 1.12
• R12Y = 1.64
• G24Q = 2.78
• T23M = 1.73
• G2P = 2.38
• A21R = 1.82
• F11D = 3.94
• G1L = 1.64
• G2D = 3.02
• D16C = 1.94
• I10G = 2.04
• Q9T = 1.58
• D16I = 2.06
• T22S = 1.63
• T23H = 1.89
• I10W = 1.74
• G24C = 1.7
• E18C = 2.04
• T23Q = 1.96
• G24Y = 1.99
• R7N = 2.83
• E18K = 2.38
• Y13V = 2.8
• Y13L = 2.51
• P17A = 1.84
